tested on: HOP-92 NSCLC; assay: NCI tumour cell line growth inhibition, 48 h
Readout type: TGI

Here is how some compounds turned out for TGI.
[
  {
    "Compound": "O=C(CC1C(=O)c2ccccc2C1=C1C(=O)c2ccccc2C1=O)c1ccccc1 (stereo unspecified)",
    "TGI": "> 100 µM"
  },
  {
    "Compound": "OC(C/C=N/Nc1ccccc1)(C(F)(F)Cl)C(F)(F)Cl",
    "TGI": "> 10 µM"
  },
  {
    "Compound": "N#Cc1c(N2CCOCC2)[nH]c(=O)c(C(c2c(Cl)cccc2Cl)c2c(O)c(C#N)c(N3CCOCC3)[nH]c2=O)c1O",
    "TGI": "37.8 µM"
  },
  {
    "Compound": "COC(=O)C1=C(c2ccc3c(c2)OCO3)OC(c2cc(OC)c(OC)c(OC)c2)C1 (stereo unspecified)",
    "TGI": "> 100 µM"
  },
  {
    "Compound": "CC(C)c1cc(OCC(O)CO)cc(C(C)C)c1 (stereo unspecified)",
    "TGI": "> 100 µM"
  }
]

Query block: State its TGI: CC1=NN(C(=O)CC(=O)Nc2cccc(Cl)c2)C(=O)C1N=Nc1ccc(C(=O)O)cc1 (stereo unspecified)
Result block: > 100 µM

Query block: Identify the reported TGI for the following entry. `O=C(N/N=C\C(F)(F)F)c1ccncc1`
Result block: > 100 µM

Query block: Hello, please tell me recorded TGI for this one: `N#CC(C#N)=Cn1c(=S)[nH]c2ccccc21`
Result block: > 100 µM

Query block: Please give the documented TGI of `CCCC[C@H]1CCN2C[C@@H](O)[C@@H](O)[C@H]2[C@@H]1O`
Result block: > 100 µM

Query block: Read the entry `COC(=O)c1c(-c2ccccc2)c2sc3ccccc3n2c1N` and write its reported TGI.
Result block: 98 µM

Query block: Input CN(C)CC1CN=C(NC(=O)Nc2ccccc2)O1 (stereo unspecified) , output reported TGI.
Result block: > 100 µM

Query block: Item `CC(C)(C)OC(=O)N(CCCCNCc1ccc2ccccc2c1)CCCNCc1ccc2ccccc2c1` : provide TGI
Result block: 3.18 µM

Query block: Provide only the value of recorded TGI for `Cc1ccc(S(=O)(=O)c2c(N)n(CCN(C)C)c3nc4ccccc4nc23)cc1`
Result block: > 100 µM

Query block: Tell me TGI reported for CC(C)C(NC(=O)C(Cc1ccccc1)NC(=O)[C@H]1CCC[C@H]1NC(=O)C(N)Cc1ccc(O)cc1)C(N)=O (stereo partly specified)
Result block: > 100 µM

Query block: Tell me its TGI given `CN(C)CCN(C(=Nc1ccccc1)N1CCCC1)c1ccccc1` as the entry.
Result block: > 100 µM

Query block: Return value of TGI for input `CCOP(=O)(OCC)/C(C#N)=C/c1ccnc2ccccc12` , no commentary.
Result block: 43.7 µM

* * *

tested on: SF-539 CNS; test: NCI tumour cell line growth inhibition, 48 h
Measured TGI values are reported for all entries that follow.

Query block: Fill in: TGI on SF-539 CNS, entry `Cc1cc(N(CCC#N)CCC#N)ccc1C=Nc1ccc(C(=O)NN2C(=O)/C(=C/c3ccc(N(CCC#N)CCC#N)cc3)N=C2c2cc([N+](=O)[O-])ccc2Cl)cc1`
Result block: > 100 µM

Query block: Given CCCCCCC(/C=N/O)C(C)(O)CCC (configuration not stated) , report its TGI on SF-539 CNS.
Result block: > 100 µM

Query block: For SF-539 CNS, give the measured TGI of the entry `CN1C(Cl)=NS(=O)(=O)c2ccccc21`
Result block: > 100 µM

Query block: // fetch TGI for `CCOC(=O)c1c(C)c(C)n2c1NC(=O)C2` ; system: SF-539 CNS
Result block: > 100 µM

Query block: Determine reported TGI for COc1ccc(NC2CC(C)N(C(=O)c3ccccc3)O2)cc1 (configuration not stated) ; test system: SF-539 CNS.
Result block: > 10 µM

Query block: GET TGI where system = SF-539 CNS and item = `CNCCC=C1c2ccccc2CCc2ccccc21`
Result block: 44.1 µM

Query block: Output reported TGI of the compound `O=C(/C=C(\O)c1ccccc1)c1cc(-c2ccccc2)n(-c2ccccc2)n1` on SF-539 CNS.
Result block: 72.3 µM

* * *

system: EKVX NSCLC; assay: NCI tumour cell line growth inhibition, 48 h
Reported TGI values follow for various compounds

Query block: Check the records and state TGI for `CCOP(=O)(OCC)/C(C#N)=C/c1ccnc2ccccc12`
Result block: > 100 µM

Query block: Please give the documented TGI of `COC(=O)[C@@H](C)C[C@H](Cc1ccccc1)NC(=O)c1csc([C@@H](C[C@H](C(C)C)N(C)C(=O)[C@H](C)NC(=O)[C@H]2CCCCN2C)OC(C)=O)n1`
Result block: > 25 µM

Query block: Using known records, supply TGI for `C=CCN1CN(c2ccccc2)C2(CCN(CCCC3(c4ccc(F)cc4)OCCO3)CC2)C1=O`
Result block: 40.1 µM

Query block: Specify measured TGI for `CC1(C)[C@H]2Cc3cc(-c4cc5c(cn4)[C@@H]4C[C@H]([C@@H]5[C@@H]5c6cc(-c7cc8c(cn7)[C@@H]7C[C@H](C8)C7(C)C)ncc6[C@@H]6C[C@H]5C6(C)C)C4(C)C)ncc3[C@@H]1C2` .
Result block: > 100 µM

Query block: Name the recorded TGI of the compound listed here: `Cn1cnc([N+](=O)[O-])c1Sc1ncn[nH]1`
Result block: > 100 µM

Query block: Answer with reported TGI of `CCOC(=O)C1=C(Nc2ccc(Cl)c(Cl)c2)OC/C1=N\NS(=O)(=O)c1ccc(C)cc1`
Result block: > 100 µM

Query block: For the compound `COc1ccc(CCc2nccn2C)cc1OC` , give its measured TGI value.
Result block: > 100 µM

Query block: Provide TGI value for the following compound: `C=CCn1c(-c2ccc(-c3cs/c(=N\N=O)n3CC=C)cc2)cs/c1=N\N=O`
Result block: > 100 µM

* * *

// CCRF-CEM leukemia GI50 records

[
  {
    "Smi": "CCN(CC)CCOc1ccc(C(=O)/C=C\\c2ccc(Cl)cc2Cl)cc1",
    "GI50": "2570 nM"
  },
  {
    "Smi": "CC(C)COC(=O)c1ccc2[nH]c(O)c(C=Nc3ccc(S(N)(=O)=O)cc3)c2c1",
    "GI50": "823 nM"
  },
  {
    "Smi": "Cc1cccc2c(N)c3ccccc3nc12",
    "GI50": "2540 nM"
  },
  {
    "Smi": "O=C(Nc1ccc(I)cc1F)c1cc(Cl)ccc1O",
    "GI50": "1730 nM"
  },
  {
    "Smi": "COc1ccc(Nc2cc(C)nc(N3CCN(c4ccnc5cc(Cl)ccc45)CC3)n2)cc1",
    "GI50": "2850 nM"
  },
  {
    "Smi": "N#Cc1cc(S(=O)(=O)Nc2nc3ccccc3s2)c(SCc2ccccc2)cc1Cl",
    "GI50": "28500 nM"
  },
  {
    "Smi": "ClCc1ccc(Cn2cnc3c(Cl)nc(Cl)nc32)cc1",
    "GI50": "1940 nM"
  }
]

As a next step, examine the molecule that follows.
Query block: Report GI50 on CCRF-CEM leukemia for this entry: `c1ccc(CNc2nc(Nc3ccccc3)nc3ccccc23)cc1`
Result block: 2130 nM

* * *

A set of molecules tested on HCT-116 colon, with measured GI50:

Here are 10 molecules together with their reported answers.
[
  {
    "Smi": "Cc1nc(Nc2nc3ccccc3o2)nc(-c2cccc([N+](=O)[O-])c2)c1C(=O)Nc1ccc(F)c(Cl)c1",
    "GI50": "1.98 µM"
  },
  {
    "Smi": "CCN(CC)CCOc1ccc(C(=O)/C=C\\c2ccc(Cl)cc2Cl)cc1",
    "GI50": "1.56 µM"
  },
  {
    "Smi": "COc1cc(/C=C/C(=O)c2cccnc2Nc2ccc(F)cc2)cc(OC)c1OC",
    "GI50": "1.54 µM"
  },
  {
    "Smi": "CO[C@H]1CC(c2ccc[nH]2)=N[C@]12O[C@@H](C)C[C@@H]1CCCCCCCc3ccc([nH]3)[C@H]12",
    "GI50": "0.711 µM"
  },
  {
    "Smi": "CCN(CC)CCSCCCNc1c2ccc(Cl)cc2nc2ccc(OC)cc12",
    "GI50": "0.488 µM"
  },
  {
    "Smi": "CC(C)CCN[C@@H]1CCc2cc(O)c(N3CC(=O)NS3(=O)=O)c(F)c2C1",
    "GI50": "> 100 µM"
  },
  {
    "Smi": "COc1cc(Cl)cc(-c2nn(-c3cccc(NC(=O)Nc4ccc(Cl)c(C(F)(F)F)c4)c3)cc2-c2ccncc2)c1",
    "GI50": "0.631 µM"
  },
  {
    "Smi": "CN(/N=N/c1nc(OCc2ccccc2)c2[nH]cnc2n1)C(=O)Oc1ccc([N+](=O)[O-])cc1",
    "GI50": "8.68 µM"
  },
  {
    "Smi": "COC(=O)[C@@H](C)C[C@H](Cc1ccccc1)NC(=O)c1csc([C@@H](C[C@H](C(C)C)N(C)C(=O)[C@H](C)NC(=O)[C@H]2CCCCN2C)OC(C)=O)n1",
    "GI50": "0.774 µM"
  },
  {
    "Smi": "Cc1cccc2c(N)c3ccccc3nc12",
    "GI50": "0.454 µM"
  }
]

Query block: Give reported GI50 for `CC(C)COC(=O)c1ccc2[nH]c(O)c(C=Nc3ccc(S(N)(=O)=O)cc3)c2c1` (HCT-116 colon)
Result block: 0.613 µM

Query block: Using HCT-116 colon as the test system, report measured GI50 of `O=C1c2nc3n(c2C(=O)c2c1nc1n2CCC1)CCC3` .
Result block: 4.29 µM
